Recorded measurements of kcat/KM (dephosphorylation of pCAP peptide), one per entry
- assayed_target: T1, R9-PCP
- T1 chain: RRRRRRRRRXDEXLI
Reply numerically in M⁻¹ s⁻¹, unit not repeated.

Solved entries (count: 2):
protein="SHP2 (protein) AETTDKVKQGFWEEFETLQQQECKLLYSRKEGQRQENKNKNRYKNILPFDHTRVVLHDGDPNEPVSDYINANIIMPEFETKCNNSKPKKSYIATQGCLQNTVNDFWRMVFQENSRVIVMTTKEVERGKSKCVKYWPDEYALKEYGVMRVRNVKESAAHDYTLRELKLSKVGQGNTERTVWQYHFRTWPDHGVPSDPGGVLDFLEEVHHKQESIMDAGPVVVHCSAGIGRTGTFIVIDILIDIIREKGVDCDIDVPKTIQMVRSQRSGMVQTEAQYRFIYMAVQHYIETLQRRI" obs_value=248
protein="PTP1B (protein) MEMEKEFEQIDKSGSWAAIYQDIRHEASDFPCRVAKLPKNKNRNRYRDVSPFDHSRIKLHQEDNDYINASLIKMEEAQRSYILTQGPLPNTCGHFWEMVWEQKSRGVVMLNRVMEKGSLKCAQYWPQKEEKEMIFEDTNLKLTLISEDIKSYYTVRQLELENLTTQETREILHFHYTTWPDFGVPESPASFLNFLFKVRESGSLSPEHGPVVVHCSAGIGRSGTFCLADTCLLLMDKRKDPSSVDIKKVLLEMRKFRMGLIQTADQLRFSYLAVIEGAKFIMGDSSVQDQWKELSHEDLEPPPEHIPPPPRPPKRILEPHN" obs_value=14700

# context switch: different protein, same kcat/KM (dephosphorylation of pCAP peptide)
Req: Which kcat/KM (dephosphorylation of pCAP peptide) value is on record for TCPTP (protein) MPTTIEREFEELDTQRRWQPLYLEIRNESHDYPHRVAKFPENRNRNRYRDVSPYDHSRVKLQNAENDYINASLVDIEEAQRSYILTQGPLPNTCCHFWLMVWQQKTKAVVMLNRIVEKESVKCAQYWPTDDQEMLFKETGFSVKLLSEDVKSYYTVHLLQLENINSGETRTISHFHYTTWPDFGVPESPASFLNFLFKVRESGSLNPDHGPAVIHCSAGIGRSGTFSLVDTCLVLMEKGDDINIKQVLLNMRKYRMGLIQTPDQLRFSYMAIIEGAKCIKGDSSIQKRWKELSKEDLSPAFDHSPNKIMTEKYN ?
Resp: 457
